test: In-vitro cytotoxicity test, Neutral Red uptake; assay type: cell-based, Human; settings: human, HaCaT keratinocytes, 1 µg/ml, 24 hours; read-out: Cell viability (% as compared to the negative control), replicates
OBSERVABLE: viability at 24 h, 1 µg/ml (%)
Numbers only, in %.

Problem: Report measured viability at 24 h, 1 µg/ml; entry is CCCCNc1ccc2nc3cc(NCCOC)c(N)cc3[n+](CCC)c2c1
Result: 11.6

----------
assay: In-vitro cytotoxicity test, Neutral Red uptake; type: cell-based, Human; conditions: human, HaCaT keratinocytes, 0.0005 µg/ml, 24 hours; read-out: Cell viability (% as compared to the negative control), replicates
OBSERVABLE: viability at 24 h, 0.0005 µg/ml (%)
Answers are plain numbers, in %.

Problem: Name the recorded viability at 24 h, 0.0005 µg/ml of the compound listed here: CCCCNc1ccc2nc3cc(NCCOC)c(N)cc3[n+](CCC)c2c1
Result: 98.9
